Assay: Metabolic stability in dog liver S9 fraction
Type: in vitro ADME
Details: Beagle, liver S9 fraction; dog liver S9, +Cofactors
Method: The metabolic stability of SP-8356 was investigated using rat, dog and human liver S9 fractions fortified with cofactors for major drug metabolism. […] The degradation t1/2 of SP-8356 was calculated using the following Equation:(1) t1/2=0.693/k, where, k was the first-order rate constant calculated by one phase decay nonlinear regression using GraphPad Prism™ 7 (GraphPad Software, La Jolla, CA, USA). […]
OBSERVED_PROPERTY: CLint scaled at 1 µM (L/h/kg)
Write the answer as a number in L/h/kg, unit excluded.

Ask | I'd like to know its CLint scaled at 1 µM. The molecule in question is `COc1cc(/C=C/C2=CC(=O)[C@H]3C[C@@H]2C3(C)C)cc(O)c1O`
Reply | 146
